- system under test: human sodium glucose cotransporter 2 (Homo sapiens)
- Construct: expressed in transfected cells; host or cells: CHO-K1 (ATCC CCL-61) or HEK293 (ATCC CRL-1573), stably transfected with pZeoSV expression vector
- Sequence (P31639 whole entry): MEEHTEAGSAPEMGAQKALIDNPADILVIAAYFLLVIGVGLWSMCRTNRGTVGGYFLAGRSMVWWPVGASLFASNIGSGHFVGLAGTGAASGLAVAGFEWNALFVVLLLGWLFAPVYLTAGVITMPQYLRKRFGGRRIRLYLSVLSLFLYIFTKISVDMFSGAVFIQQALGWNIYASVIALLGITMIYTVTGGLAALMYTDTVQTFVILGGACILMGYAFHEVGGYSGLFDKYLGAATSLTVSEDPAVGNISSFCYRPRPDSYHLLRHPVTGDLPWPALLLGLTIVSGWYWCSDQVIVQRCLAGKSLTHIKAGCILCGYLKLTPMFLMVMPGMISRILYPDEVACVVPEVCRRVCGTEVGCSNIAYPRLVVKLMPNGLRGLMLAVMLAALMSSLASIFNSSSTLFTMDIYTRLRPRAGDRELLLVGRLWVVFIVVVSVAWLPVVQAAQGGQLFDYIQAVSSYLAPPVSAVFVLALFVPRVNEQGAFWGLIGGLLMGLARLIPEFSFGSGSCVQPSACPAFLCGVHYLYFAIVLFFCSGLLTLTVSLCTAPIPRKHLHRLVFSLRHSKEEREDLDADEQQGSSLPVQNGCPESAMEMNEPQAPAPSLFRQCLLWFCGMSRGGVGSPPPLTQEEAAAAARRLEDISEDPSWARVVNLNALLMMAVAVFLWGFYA
- assay notes: SGLT-2 assay: 14C-AMG uptake in CHO-hSGLT2 or HEK293-hSGLT2 cells
- Type: cell-based
- cond: n = 1-4, hSGLT2-transfected cells, read-out: SGLT2 IC50 nM (n = 1-4)
reported property: IC50 (nM)

Sample answers from the record:
[[record]]
compound = "CCOc1ccc(Cc2cc([C@@H]3O[C@H](COc4cccc(C(=O)NC)c4)[C@@H](O)[C@H](O)[C@H]3O)ccc2Cl)cc1 [Example 83]"
reported_property = "IC50"
recorded_measurement = 72

[[record]]
compound = "CCOc1ccc(Cc2cc([C@@H]3O[C@H](CSc4cccc(NC(C)=O)c4)[C@@H](O)[C@H](O)[C@H]3O)ccc2Cl)cc1 [Example 80]"
reported_property = "IC50"
recorded_measurement = 13


a: CCOc1ccc(Cc2cc([C@@H]3O[C@H](CSc4cccs4)[C@@H](O)[C@H](O)[C@H]3O)ccc2Cl)cc1 [Example 11]
b: CCOc1ccc(Cc2cc([C@@H]3O[C@H](CSc4cccc(C(N)=O)c4)[C@@H](O)[C@H](O)[C@H]3O)ccc2Cl)cc1 [Example 78]
c: CCOc1ccc(Cc2cc([C@@H]3O[C@H](CSc4ccc(NC(C)=O)cc4)[C@@H](O)[C@H](O)[C@H]3O)ccc2Cl)cc1 [Example 61]
d: CCOc1ccc(Cc2cc([C@@H]3O[C@H](CSc4cc(C(=O)N5CCCC5)ccc4F)[C@@H](O)[C@H](O)[C@H]3O)ccc2Cl)cc1 [Example 36]
Query string: Sort entries by IC50 from minimum to maximum value. Provide your answer as the labels ordered per the instruction.
Result string: d, c, b, a
(d: 6 nM, c: 28 nM, b: 42 nM, a: 60 nM)
